Experiment: Cytotoxicity against mouse BV-2 cells assessed as survival rate at 5 uM incubated for 24 hrs by CCK8 assay relative to control
Format: toxicity, cell-based
Conditions: read-out: Survival
Task for the reader: assign each of the following compounds its reported viability at 24 h, 5 µM.
The response must be a number in % with no trailing unit.

Requested field: viability at 24 h, 5 µM. Item: COc1cc(OC)c2c(c1)OCC/C(=C\c1cc(C(F)(F)F)cc(C(F)(F)F)c1)C2=O 95

Requested field: viability at 24 h, 5 µM. Item: COc1cc(OC)c2c(c1)OCCC1=C2NC(N)=NC1c1ccccc1F (stereo not given) 143

Requested field: viability at 24 h, 5 µM. Item: COc1cc(OC)c2c(c1)OCC/C(=C\c1cc(F)cc(F)c1)C2=O 150

Requested field: viability at 24 h, 5 µM. Item: COc1cc(OC)c2c(c1)OCC/C(=C\c1ccccc1F)C2=O 146

Requested field: viability at 24 h, 5 µM. Item: COc1cc(OC)c2c(c1)OCC/C(=C\c1ccc(F)cc1)C2=O 148

The origin of these recorded values is ChEMBL document CHEMBL5625220.
